Below is a list of entries, each paired with its recorded inhibition value.
- Test Protocol: HepG2 cytotoxicity, primary screen, cytotoxicity control for P. falciparum antimalarial project, cell-based, ATP luminescence (AID 2303);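 further: 0% = DMSO wells and 100% = digitonin-killed cells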
- Conditions: HepG2 viability, 24-48 h, at 10 µM, stronger effect = higher value
Activity calls are given as the source filed them.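 How the source made its calls: active means inhibition above 50%; inactive means the rest.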
Attribute Measured: inhibition

- Compound: "Cc1cc(NC(=O)NCCN2CCC(NS(=O)(=O)c3ccc(Br)cc3)C2)c2ccccc2n1 (stereo not drawn)"
  Value Reported: "9% (inactive)"
- Compound: "O=C(Nc1ccc(CCNCc2ccccc2)cc1)Nc1ccc(OC(F)(F)F)cc1"
  Value Reported: "-2% (inactive)"
- Compound: "CN1CCN(CCCN(Cc2ccc(-c3cccc(CNCc4ccc5c(c4)OCO5)c3)cc2)C(=O)NCCc2ccccc2)CC1"
  Value Reported: "36% (inactive)"
- Compound: "CCCCCCN1CCCN(Cc2ccc(C(=O)Nc3ccc(C)c(F)c3)cc2)CC1"
  Value Reported: "47% (inactive)"
- Compound: "c1csc(-c2nc(NCC3CCCO3)ncc2-c2ccsc2)n1 (stereo not drawn)"
  Value Reported: "-4% (inactive)"
- Compound: "CN1CCC(NCc2cccc(-c3ccc(S(=O)(=O)NCc4ccccc4)cc3)c2)CC1"
  Value Reported: "61% (active)"
- Compound: "OCCCCCCN=Cc1[nH]c(=S)sc1O"
  Value Reported: "7% (inactive)"
- Compound: "COc1ccc(Nc2nc(NC3CCN(C)CC3)cc(-c3ccc(OC)cc3)n2)cc1"
  Value Reported: "62% (active)"
